List of Kd values.
molecular target: CSF1R (human) (Homo sapiens, UniProt P07333); construct: made in house; host or cells: T7 phage display or HEK-293 cells (alternatives, not resolved per kinase); assay: Competition binding assay, CSF1R (human) Kd
Sequence (P07333 20-972): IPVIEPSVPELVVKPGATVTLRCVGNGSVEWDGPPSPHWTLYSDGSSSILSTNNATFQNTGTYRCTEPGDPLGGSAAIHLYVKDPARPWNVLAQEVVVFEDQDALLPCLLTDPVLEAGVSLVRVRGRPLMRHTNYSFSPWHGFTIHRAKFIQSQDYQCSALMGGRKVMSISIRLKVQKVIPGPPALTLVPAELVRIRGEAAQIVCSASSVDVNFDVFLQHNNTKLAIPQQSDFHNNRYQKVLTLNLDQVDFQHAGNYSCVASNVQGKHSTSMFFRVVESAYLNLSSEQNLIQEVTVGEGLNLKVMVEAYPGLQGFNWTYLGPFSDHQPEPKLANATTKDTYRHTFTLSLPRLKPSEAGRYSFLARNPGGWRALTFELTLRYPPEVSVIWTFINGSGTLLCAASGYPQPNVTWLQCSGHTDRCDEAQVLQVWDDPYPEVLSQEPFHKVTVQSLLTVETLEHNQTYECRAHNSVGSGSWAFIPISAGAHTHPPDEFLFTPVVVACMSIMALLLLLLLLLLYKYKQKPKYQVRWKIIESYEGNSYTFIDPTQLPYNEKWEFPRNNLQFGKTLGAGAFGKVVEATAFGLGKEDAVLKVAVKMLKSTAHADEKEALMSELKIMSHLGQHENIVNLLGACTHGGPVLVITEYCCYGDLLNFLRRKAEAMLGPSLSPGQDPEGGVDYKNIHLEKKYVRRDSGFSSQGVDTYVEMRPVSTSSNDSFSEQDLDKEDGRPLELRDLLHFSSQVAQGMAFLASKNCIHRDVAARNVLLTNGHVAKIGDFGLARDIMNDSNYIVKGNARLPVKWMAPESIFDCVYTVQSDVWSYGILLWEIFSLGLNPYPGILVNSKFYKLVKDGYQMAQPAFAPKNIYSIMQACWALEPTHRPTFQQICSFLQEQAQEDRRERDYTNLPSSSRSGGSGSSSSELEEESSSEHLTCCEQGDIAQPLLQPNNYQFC
property: Kd

>>> df
                               entry_smiles       value
0  COc1cc(NC(=O)c2ccc(OC3CC(C)(C)N(C)C(C)(C)C3)cn2)ccc1NC(=O)Nc1cc(C(C)(C)C)on1  3 to 10 nM
1  CCN1C(C)(C)CC(Oc2ccc(C(=O)Nc3ccc(NC(=O)Nc4cc(C(C)(C)C)no4)cc3)nc2)CC1(C)C     > 10 nM
2  CN1C(C)(C)CC(Oc2cnc(C(=O)Nc3ccc(NC(=O)Nc4cc(C(C)(C)C)on4)cc3)cn2)CC1(C)C  3 to 10 nM
3  CC(C)(C)c1cc(NC(=O)Nc2ccc(NC(=O)c3cc(OCCN4CCOCC4)ccn3)cc2)no1  3 to 10 nM

----------
molecular target: kinase panel containing either 359 or 386 distinct kinases; test: Competition binding assay, selectivity score (S10) against a panel of kinases; conditions: compounds at 10 μM; fraction of kinases with percent of control less than 10
property: Kinase Specificity (S10)

                               entry_smiles                value
0  CC(C)(C)c1cc(NC(=O)Nc2ccc(NC(=O)c3cc(OCCN4CCOCC4)ccn3)cc2)no1         A (A ≦ 0.03)
1  CCN1CCC(c2ccc(C(=O)Nc3ccc(NC(=O)Nc4cc(C(C)(C)C)on4)cc3)nc2)CC1  B (0.03 < B ≦ 0.05)
2  CCN1C(C)(C)CC(Oc2ccc(C(=O)Nc3ccc(NC(=O)Nc4cc(C(C)(C)C)no4)cc3)nc2)CC1(C)C  B (0.03 < B ≦ 0.05)
3  CCN(CC)Cc1ccnc(C(=O)Nc2ccc(NC(=O)Nc3cc(C(C)(C)C)on3)cc2)c1         A (A ≦ 0.03)

----------
pKd: −log10 of the molar value.
Target or system CSF1R (mouse) (Mus musculus); recorded quantity pKd.
property: pKd

                               entry_smiles         value
0  CC(C)N1CCC(Oc2ccc(C(=O)Nc3ccc(NC(=O)Nc4cc(C(C)(CF)CF)on4)cc3)nc2)CC1        > 8.52
1  CN1CCN(c2cccc(C(=O)Nc3ccc(NC(=O)Nc4cc(C(C)(C)C)on4)cc3)n2)CC1  8.00 to 8.52
2  CC(CF)(CF)c1cc(NC(=O)Nc2ccc(NC(=O)c3ccc(OC4CCN(CC(F)(F)F)CC4)cn3)cc2)no1        > 8.52
3  CN1CCC(Oc2ccc(C(=O)Nc3ccc(NC(=O)Nc4cc(C(C)(CF)CF)on4)cc3)nc2)CC1        > 8.52
4  CC(C)(C)c1cc(NC(=O)Nc2ccc(NC(=O)c3ccc(CC4CCNCC4)cn3)cc2)no1        > 8.52
5  CC(C)(C)c1cc(NC(=O)Nc2ccc(NC(=O)c3cccc(CN4CCOCC4)n3)cc2)no1        < 8.00
6  CCN(CC)Cc1cccc(C(=O)Nc2ccc(NC(=O)Nc3cc(C(C)(C)C)on3)cc2)n1        < 8.00
7  CN1CCN(c2ccc(C(=O)Nc3ccc(NC(=O)Nc4cc(C(C)(C)C)on4)cc3)nc2)CC1        > 8.52
8  CN1CCN(c2ccnc(C(=O)Nc3ccc(NC(=O)Nc4cc(C(C)(C)C)on4)cc3)c2)CC1  8.00 to 8.52
9  CCN1CCC(Oc2ccc(C(=O)Nc3ccc(NC(=O)Nc4cc(C(C)(CF)CF)on4)cc3)nc2)CC1        > 8.52

----------
Target: kinase panel containing either 359 or 386 distinct kinases
Experiment: Competition binding assay, selectivity score (S10) against a panel of kinases
Conditions: compounds at 10 μM; fraction of kinases with percent of control less than 10
Description: Competition binding assays used herein were developed, validated and performed as described in Fabian et al., Nature Biotechnology 2005, 23, 329-336. […] Kds were determined using an eleven point threefold serial dilutions. […] The kinase concentration in the eluates was measured by quantitative PCR. A selectivity score (S10) is a quantitative measure of selectivity of a compound against a panel of kinases. […] Percent of control (POC) is calculated by subtracting the signal of the control compound […]
property: Kinase Specificity (S10)

In [3]: df
Out[3]:
                                    compound                  property                value
 0  CC(C)N1CCC(Oc2ccc(C(=O)Nc3ccc(NC(=O)Nc4cc(C(C)(CF)CF)on4)cc3)nc2)CC1  Kinase Specificity (S10)  B (0.03 < B ≦ 0.05)
 1  CC(C)N1CC(Oc2ccc(C(=O)Nc3ccc(NC(=O)Nc4cc(C(C)(C)C)on4)cc3)nc2)C1  Kinase Specificity (S10)  B (0.03 < B ≦ 0.05)
 2  CN1CCC(Oc2ccnc(C(=O)Nc3ccc(NC(=O)Nc4cc(C(C)(C)C)on4)cc3)c2)CC1  Kinase Specificity (S10)  B (0.03 < B ≦ 0.05)
 3  CC(C)(C)c1cc(NC(=O)Nc2ccc(NC(=O)c3ccc(OC4CCN(CCS(C)(=O)=O)C4)cn3)cc2)no1 (centres unmarked)  Kinase Specificity (S10)         C (C > 0.05)
 4  CC(C)N1CCC(Oc2ccc(C(=O)Nc3ccc(NC(=O)Nc4cc(C(C)(C)C)on4)cc3)nc2)C1 (centres unmarked)  Kinase Specificity (S10)  B (0.03 < B ≦ 0.05)
 5  CC(C)(C)c1cc(NC(=O)Nc2ccc(NC(=O)c3ccc(OC4CCNCC4)cn3)cc2)no1  Kinase Specificity (S10)         C (C > 0.05)
 6  CN1C(C)(C)CC(Oc2ccc(C(=O)Nc3ccc(NC(=O)Nc4cc(C(C)(C)C)nn4C)cc3)nc2)CC1(C)C  Kinase Specificity (S10)  B (0.03 < B ≦ 0.05)
 7  CCN1CCC(Oc2ccc(C(=O)Nc3ccc(NC(=O)Nc4cc(C(C)(CF)CF)on4)cc3)nc2)CC1  Kinase Specificity (S10)  B (0.03 < B ≦ 0.05)
 8  CN1CCN(Cc2ccc(C(=O)Nc3ccc(NC(=O)Nc4cc(C(C)(C)C)on4)cc3)nc2)CC1  Kinase Specificity (S10)         A (A ≦ 0.03)
 9  CN1C(C)(C)CC(Oc2cnc(C(=O)Nc3ccc(NC(=O)Nc4cc(C(C)(C)C)on4)cc3)cn2)CC1(C)C  Kinase Specificity (S10)  B (0.03 < B ≦ 0.05)
10  CCN1CCC(Oc2ccc(C(=O)Nc3ccc(NC(=O)Nc4cc(C(C)(C)F)no4)cc3)nc2)CC1  Kinase Specificity (S10)         A (A ≦ 0.03)
